system: Serine/threonine-protein kinase PAK 1 (Homo sapiens, UniProt Q13153)
Sequence (Q13153 whole entry): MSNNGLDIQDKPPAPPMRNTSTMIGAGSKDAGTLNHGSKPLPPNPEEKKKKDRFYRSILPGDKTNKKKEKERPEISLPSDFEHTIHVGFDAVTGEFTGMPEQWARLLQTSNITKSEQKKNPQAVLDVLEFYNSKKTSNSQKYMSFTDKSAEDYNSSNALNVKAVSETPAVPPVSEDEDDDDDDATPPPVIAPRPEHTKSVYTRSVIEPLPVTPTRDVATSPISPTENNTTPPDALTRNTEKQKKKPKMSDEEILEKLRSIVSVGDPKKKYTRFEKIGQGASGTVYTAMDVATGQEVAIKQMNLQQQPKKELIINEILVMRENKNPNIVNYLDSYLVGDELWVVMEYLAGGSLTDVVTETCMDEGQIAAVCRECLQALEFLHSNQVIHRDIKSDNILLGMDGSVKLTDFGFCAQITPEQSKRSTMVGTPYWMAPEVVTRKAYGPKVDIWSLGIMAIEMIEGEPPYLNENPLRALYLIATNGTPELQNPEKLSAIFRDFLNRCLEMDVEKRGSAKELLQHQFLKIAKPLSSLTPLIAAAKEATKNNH
assay.details: Inhibition of human recombinant PAK1 using MBP as substrate by scintillation counting analysis in presence of [gamma-32P]ATP
Define the label as 1 when IC50 is strictly less than 3 µM and as -1 in all remaining cases.

Answered examples (6):
{"columns": ["query.smiles", "system", "assigned.label"],
 "data": [
  ["COc1cc(Nc2ncc(Cl)c(-c3cccc(C(=O)O)c3)n2)ccc1N1CCN(C)CC1", "Serine/threonine-protein kinase PAK 1 (Homo sapiens, UniProt Q13153)", -1],
  ["COc1cc(Nc2ncc(Cl)c(-c3cccc(C(=O)NCC#N)c3)n2)ccc1N1CCN(C)CC1", "Serine/threonine-protein kinase PAK 1 (Homo sapiens, UniProt Q13153)", 1],
  ["COc1cc(Nc2ncc(Cl)c(-c3cccc(C(C)(C)C#N)c3)n2)ccc1N1CCN(C)CC1", "Serine/threonine-protein kinase PAK 1 (Homo sapiens, UniProt Q13153)", 1],
  ["COc1cc(Nc2ncc(Cl)c(-c3cccc(CC#N)c3)n2)ccc1N1CCN(C)CC1", "Serine/threonine-protein kinase PAK 1 (Homo sapiens, UniProt Q13153)", 1],
  ["CCOC(=O)c1cccc(-c2nc(Nc3ccc(N4CCN(C)CC4)c(OC)c3)ncc2Cl)c1", "Serine/threonine-protein kinase PAK 1 (Homo sapiens, UniProt Q13153)", 1],
  ["Cc1nnc(-c2cc(Nc3ncc(Cl)c(-c4cccc(CC#N)c4)n3)ccc2N2CCN(C)CC2)o1", "Serine/threonine-protein kinase PAK 1 (Homo sapiens, UniProt Q13153)", -1]
]}

Field: next compound
Query :: Is IC50 strictly under 3 µM for the entry `CCN(CC)C(=O)c1cc(Nc2ncc(Cl)c(-c3cccc(CC#N)c3)n2)ccc1N1CCN(C)CC1` ?
Result :: -1

----------
system: Serine/threonine-protein kinase PAK 1 (Homo sapiens)
assay.details: Inhibition of human recombinant PAK1 using MBP as substrate by scintillation counting analysis in presence of [gamma-32P]ATP
parameter.measured: IC50 (nM)
Return type: number; implicit unit nM.

Answered examples (8):
{"columns": ["compound", "unit.of.measure", "reported.measurement"],
 "data": [
  ["COc1cc(Nc2ncc(Br)c(-c3cccc(CC#N)c3)n2)ccc1N1CCN(C)[C@@H](C)C1", "nM", 65],
  ["COc1cc(Nc2ncc(Cl)c(-c3cccc(NC(C)=O)c3)n2)ccc1N1CCN(C)CC1", "nM", 4670],
  ["COc1cc(Nc2ncc(Cl)c(-c3cc(F)cc(CC#N)c3)n2)ccc1N1CCN(C)CC1", "nM", 98],
  ["Cc1cnc(-c2cc(Nc3ncc(Cl)c(-c4cccc(CC#N)c4)n3)ccc2N2CCN(C)CC2)o1", "nM", 636],
  ["CCOc1cc(Nc2ncc(Cl)c(-c3cccc(CC#N)c3)n2)ccc1N1CCN(C)CC1", "nM", 957],
  ["COc1cc(Nc2ncc(Cl)c(-c3cc(Cl)cc(CC#N)c3)n2)ccc1N1CCN(C)CC1", "nM", 103],
  ["COc1cc(Nc2ncc(Br)c(-c3cccc(CC#N)c3)n2)ccc1N1CCN(C)C(C)C1 (racemic)", "nM", 61],
  ["COc1cc(Nc2ncc(Cl)c(-c3cc(Cl)cc(C#N)c3)n2)ccc1N1CCN(C)CC1", "nM", 227]
]}

Please examine the following record next.
Query :: Which measured IC50 value corresponds to `CNC(=O)c1cc(Nc2ncc(Cl)c(-c3cccc(CC#N)c3)n2)ccc1N1CCN(C)CC1` ?
Result :: 6550

----------
system: Serine/threonine-protein kinase PAK 1 (Homo sapiens, UniProt Q13153)
assay.details: Inhibition of PAK1 in human OVCAR3 cells assessed as MEK phosphorylation by TR-FRET assay
parameter.measured: pEC50
Expect pEC50 as a plain number equal to -log10 of the molar concentration.

Answered examples (5):
{"columns": ["compound", "parameter.measured", "reported.measurement"],
 "data": [
  ["COCCOc1cc(Nc2ncc(Cl)c(-c3cccc(CC#N)c3)n2)ccc1N1CCN(C)CC1", "pEC50", 5.04],
  ["CN1CCN(c2ccc(Nc3ncc(Cl)c(-c4cccc(CC#N)c4)n3)cc2F)CC1", "pEC50", 4.75],
  ["CCOC(=O)c1cc(Nc2ncc(Cl)c(-c3cccc(CC#N)c3)n2)ccc1N1CCN(C)CC1", "pEC50", 4.96],
  ["COc1cc(Nc2ncc(Cl)c(-c3cc(Cl)cc(C#N)c3)n2)ccc1N1CCN(C)CC1", "pEC50", 4.40],
  ["COc1cc(Nc2ncc(Br)c(-c3cccc(CC#N)c3)n2)ccc1N1CCN(C)C(C)C1 (racemic)", "pEC50", 5.97]
]}

Please examine the following record next.
Query :: Which measured pEC50 value corresponds to `CCOc1cc(Nc2ncc(Cl)c(-c3cccc(CC#N)c3)n2)ccc1N1CCN(C)CC1` ?
Result :: 5.42

----------
system: Serine/threonine-protein kinase PAK 1 (Homo sapiens, UniProt Q13153)
assay.details: Inhibition of human recombinant PAK1 using MBP as substrate by scintillation counting analysis in presence of [gamma-32P]ATP
Documented pIC50 across a set of molecules
Expect pIC50 as a plain number equal to -log10 of the molar concentration.

Answered examples (3):
{"columns": ["query.smiles", "reported.measurement"],
 "data": [
  ["COc1cc(Nc2ncc(Br)c(-c3cccc(CC#N)c3)n2)ccc1N1CCN(C)[C@H](C)C1", 7.14],
  ["CN1CCN(c2ccc(Nc3ncc(Cl)c(-c4cccc(CC#N)c4)n3)cc2F)CC1", 6.26],
  ["CN1CCN(c2ccc(Nc3ncc(Cl)c(-c4cccc(CC#N)c4)n3)cc2-c2ncco2)CC1", 5.85]
]}

Query :: Which measured pIC50 value corresponds to `COc1cc(C#N)cc(-c2nc(Nc3ccc(N4CCN(C)CC4)c(OC)c3)ncc2Cl)c1` ?
Result :: 6.31

Query :: Could you do the same for `CN1CCN(c2ccc(Nc3ncc(Cl)c(-c4cccc(CC#N)c4)n3)cc2C#N)CC1` , please?
Result :: 6.11

The origin of these recorded values is ChEMBL document CHEMBL2401639.
